Taken from patent US20080031866A1.

- experiment_notes: Intraduodenal dosing with and without β-glucuronidase, catheterized rat
- Assay type: in vivo
- condition_description: male, Sprague Dawley, rat, plasma, other: intraduodenal, 10 mg/kg, rats N=6; Compound 1 10 mg/kg intraduodenal with β-glucuronidase; 1 hr
endpoint: concentration at 1 h (ng/mL)
# unit: ng/mL | format: bare number

Use the examples below as a reference point.
COc1cc2c(cc1OC)-c1nn(C3OC(C(=O)O)C(O)C(O)C3O)c(Nc3cccc(F)c3)c1C2 (stereo in doubt) [Cpd 1-GluB]
676
COc1cc2c(cc1OC)-c1n[nH]c(Nc3cccc(F)c3)c1C2 [Compound 1]
75.6

# input for lookup
What does the data say about its concentration at 1 h? Entry: COc1cc2c(cc1OC)-c1n[nH]c(N(c3cccc(F)c3)[C@H]3O[C@@H](C(=O)O)[C@H](O)[C@@H](O)[C@@H]3O)c1C2 [Cpd 1-GluA]
3860
